Assignment: determine reported Kd for the given proteins.
# Measurement target: the molecule itself
# Assay info: AUC
Report field: quantity (unit follows the number).

query: # lookup: Kd of HP1a-CSDΔ204 (residues 131-203) (domain or fragment, D. melanogaster, UniProt P05205 131-203, looked up) EQDTIPVSGSTGFDRGLEAEKILGASDNNGRLTFLIQFKGVDQAEMVPSSVANEKIPRMVIHFYEERLSWYSD
result: 2 µM

query: # lookup: Kd of HP1a-CSD (residues 131-206), wild type (domain or fragment, D. melanogaster, UniProt P05205 131-206, looked up) EQDTIPVSGSTGFDRGLEAEKILGASDNNGRLTFLIQFKGVDQAEMVPSSVANEKIPRMVIHFYEERLSWYSDNED
result: 3 µM

query: # lookup: Kd of HP1a-CSD S199E S202E double mutant (residues 131-206) (domain or fragment, D. melanogaster, UniProt P05205 131-206, looked up) EQDTIPVSGSTGFDRGLEAEKILGASDNNGRLTFLIQFKGVDQAEMVPSSVANEKIPRMVIHFYEERLEWYEDNED
result: 19 µM

query: # lookup: Kd of HP1a-CSD E195Q (residues 131-206) (domain or fragment, D. melanogaster, UniProt P05205 131-206, looked up) EQDTIPVSGSTGFDRGLEAEKILGASDNNGRLTFLIQFKGVDQAEMVPSSVANEKIPRMVIHFYQERLSWYSDNED
result: 4.3 µM
